Listing: IC50 of selected molecules
# assayed_system: Interleukin-23 receptor (Homo sapiens)
# Sequence (Q5VWK5 whole entry): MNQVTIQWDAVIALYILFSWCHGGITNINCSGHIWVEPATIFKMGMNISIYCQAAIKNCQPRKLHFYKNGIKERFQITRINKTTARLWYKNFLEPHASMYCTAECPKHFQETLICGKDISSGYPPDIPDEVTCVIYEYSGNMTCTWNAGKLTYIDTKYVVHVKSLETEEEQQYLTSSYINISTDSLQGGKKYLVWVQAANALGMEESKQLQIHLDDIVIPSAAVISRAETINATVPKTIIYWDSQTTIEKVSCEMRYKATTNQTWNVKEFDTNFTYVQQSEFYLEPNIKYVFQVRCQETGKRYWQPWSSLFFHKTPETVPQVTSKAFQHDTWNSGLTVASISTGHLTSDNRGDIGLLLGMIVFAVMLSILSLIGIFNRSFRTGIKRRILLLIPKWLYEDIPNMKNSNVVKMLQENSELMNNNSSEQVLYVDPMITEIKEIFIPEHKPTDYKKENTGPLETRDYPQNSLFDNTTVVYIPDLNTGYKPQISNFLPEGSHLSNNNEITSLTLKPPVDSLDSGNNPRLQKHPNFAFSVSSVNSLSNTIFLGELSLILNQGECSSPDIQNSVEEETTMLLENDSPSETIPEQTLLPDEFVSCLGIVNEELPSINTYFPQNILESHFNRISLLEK
# method: Inhibition of interleukin-23 binding to human interleukin-23 receptor incubated for 2 hrs by competitive binding ELISA

Would you please look over these solved cases?
{"columns": ["structure_notation", "assayed_system", "IC50"],
 "data": [
  ["CC(=O)N[C@@H](CS)C(=O)N[C@@H](CCC(N)=O)C(=O)N[C@H](C(=O)N[C@@H](Cc1c[nH]c2ccccc12)C(=O)N[C@@H](CCC(N)=O)C(=O)N[C@@H](CS)C(=O)N[C@@H](Cc1ccc(O)cc1)C(=O)N[C@@H](Cc1c[nH]c2ccccc12)C(=O)N(C)[C@@H](CCCNC(=N)N)C(=O)N[C@@H](CCC(=O)O)C(=O)N[C@@H](CC(N)=O)C(=O)NCC(=O)NCCOCC(=O)N[C@H](CCCCN)C(N)=O)[C@@H](C)O", "Interleukin-23 receptor (Homo sapiens)", "> 1000 nM"],
  ["CC(C)CC[C@H](NC(=O)[C@H](Cc1c[nH]c2ccccc12)NC(=O)[C@H](Cc1ccc(O)cc1)NC(=O)[C@H](CS)NC(=O)[C@H](CCC(N)=O)NC(=O)[C@H](Cc1c[nH]c2ccccc12)NC(=O)[C@@H](NC(=O)[C@H](CCC(N)=O)NC(=O)[C@@H](N)CS)[C@@H](C)O)C(=O)N[C@@H](CCC(=O)O)C(=O)N[C@@H](CC(N)=O)C(=O)NCC(=O)NCCOCC(=O)N[C@H](CCCCN)C(N)=O", "Interleukin-23 receptor (Homo sapiens)", "< 500 nM"]
]}

Note: attention shifts to another entry.
Data request: // IC50 lookup, key: CC(=O)NCCCC[C@H](NC(=O)[C@H](CCC(C)C)NC(=O)[C@H](Cc1ccc2ccccc2c1)NC(=O)[C@H](Cc1ccc(OCCN)cc1)NC(=O)[C@@H]1CSCC[C@H](NC(C)=O)C(=O)N[C@@H](CCC(N)=O)C(=O)N[C@@H]([C@@H](C)O)C(=O)N[C@@H](Cc2c[nH]c3ccccc23)C(=O)N[C@@H](CCC(N)=O)C(=O)N1)C(=O)N[C@@H](CC(N)=O)C(=O)NCCC(N)=O
Data returned: < 10 nM
